- Protocol notes: in vitro
- Run conditions: rat, microsomes
Observation type: microsomal CLint at 1 h (µL/min/mg)

* CCN1CCN(Cc2ccc(Nc3ncc(F)c(-c4cc(F)c5nc(C)n(C(C)C)c5c4)n3)nc2)CC1 | 6

* * *

- Protocol notes: in vivo
- Run conditions: BALB/c, mouse, po, 10 mg/kg
Observation type: bioavailability at 24 h (%)

- CCN1CCN(Cc2ccc(Nc3ncc(F)c(-c4cc(F)c5nc(C)n(C(C)C)c5c4)n3)nc2)CC1 [ABEMACICLIB]: 78.6

* * *

- Protocol notes: in vivo
- Run conditions: BALB/c, mouse, iv, 3 mg/kg
Observation type: half-life at 24 h (h)

• CCN1CCN(Cc2ccc(Nc3ncc(F)c(-c4cc(F)c5nc(C)n(C(C)C)c5c4)n3)nc2)CC1 [ABEMACICLIB] = 5.41
